Reference for the values: the supplement of paper PMC13380429

- Test system: HepG2
- assay comment: cell viability relative to DMSO; higher = less toxic
- test parameters: 72 h; 10 nM
Please go through the items and note down their cell viability.
State the answer as a number, implicitly in %.

Req: Kindly indicate its recorded cell viability. Item: O=P(O)(O)C(Cl)(Cl)P(=O)(O)O
Resp: 96.6

Req: # return recorded cell viability for input CCN(CC)c1ccc(C(=C2C=CC(=[N+](CC)CC)C=C2)c2ccccc2)cc1
Resp: 97.7

Req: Indicate the recorded cell viability value for this compound: CCOC(=O)[C@H](CCc1ccccc1)N[C@@H](C)C(=O)N1C(=O)N(C)C[C@H]1C(=O)O
Resp: 103

Req: For the compound Cc1nc(NC(=O)N2CCC[C@H]2C(N)=O)sc1-c1ccnc(C(C)(C)C(F)(F)F)c1 , give its reported cell viability.
Resp: 99.7

Req: Supply reported cell viability belonging to this compound: CCOc1cc(C(C)(C)C)ccc1C1=N[C@@](C)(c2ccc(Cl)cc2)[C@@](C)(c2ccc(Cl)cc2)N1C(=O)N1CCN(CCCS(C)(=O)=O)CC1
Resp: 102

Req: Specify cell viability for N#Cc1c(N)nc(SCC(N)=O)c(C#N)c1-c1ccc(OCC2CC2)cc1 and stop.
Resp: 98.1

Req: Give the reported value of cell viability for this record: c1ccc(C2CC2)c(OCC2=NCCN2)c1
Resp: 97.6

Req: Provide measured cell viability value, entry: CCN1C[C@]2(OC(=O)c3ccccc3NC(C)=O)CC[C@H](OC)[C@@]34[C@@H]2C[C@@H]([C@@H]13)[C@@]1(O)C[C@H](OC)[C@H]2C[C@@H]4[C@]1(O)[C@H]2OC
Resp: 97.1

Req: Complete the entry with cell viability for Cc1c(C)c(NCC(=O)N(C)C2CCN(Cc3ccc(C(N)=O)cc3)CC2)c(C)c(C)c1N
Resp: 100

Req: Fill in reported cell viability for this entry: COc1ccccc1OC(=O)c1ccccc1OC(C)=O
Resp: 115

Req: Query cell viability for Nc1nc(=O)n([C@@H]2O[C@H](CO)[C@@H](O)[C@@H]2F)cc1I
Resp: 91.4

Req: Item CC[C@H]1CN2CC[C@H]1C[C@@H]2[C@@H](O)c1ccnc2ccc(OC)cc12 [hydroquinidine] : provide cell viability
Resp: 95.1

Req: Please report cell viability for the following compound: NC(=O)CC[C@H](N)C(=O)O
Resp: 102

Req: Write down cell viability measured for item COc1ccc(COc2ccc(CC#N)cc2)cc1
Resp: 97

Req: Return cell viability for the following compound: COc1nc(C)nc(Cl)c1NC1=NCCN1
Resp: 101

Req: Give the reported value of cell viability for this record: COc1c(C)cnc(Cn2cnc3c(Cl)nc(N)nc32)c1C
Resp: 100

Req: Supply measured cell viability of Cl/C=C\C[N+]12CN3CN(CN(C3)C1)C2 [1-((Z)-3-chloroallyl)-1,3,5,7-tetraazaadamantan-1-ium] in your reply.
Resp: 104
